Tested on: PmTbr T-box DNA-binding domain (GST fusion);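 note: 200 nM protein in PBS on universal arrays averaged over duplicate arrays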
Sequence: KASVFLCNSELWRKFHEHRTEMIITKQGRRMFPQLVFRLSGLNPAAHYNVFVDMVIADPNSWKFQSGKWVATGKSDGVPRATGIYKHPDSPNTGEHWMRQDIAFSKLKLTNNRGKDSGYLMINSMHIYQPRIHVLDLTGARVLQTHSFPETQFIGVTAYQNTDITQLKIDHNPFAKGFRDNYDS
Assay: PBM E-score of 8-mer (E-score (dimensionless, -0.5 to 0.5)); Tbr is Tbrain of the sea star Patiria miniata (Pm) or the sea urchin Strongylocentrotus purpuratus (Sp); higher = stronger binding preference
Details: the construct has about 5 more residues each side
In all, about 33,000 sequences were measured (“E-score (dimensionless, -0.5 to 0.5)”: median about -0.049, highest 2% from about 0.37 on). Only a selection was taken, and the highest values are over-represented in it overall.
measure_name: PBM E-score of 8-mer
# output: bare number, no unit

Use these answered entries as a reference point.
AGGGGAGG = -0.223
GAATTGTC = 0.184

Prompt: Data request, read-out PBM E-score of 8-mer, for `CTCACGCC`
Completion: 0.393

Prompt: Data request, read-out PBM E-score of 8-mer, for `CGTGTGTA`
Completion: 0.00111

Prompt: Data request, read-out PBM E-score of 8-mer, for `AACCTCGA`
Completion: 0.0311

Prompt: Data request, read-out PBM E-score of 8-mer, for `CACCTCGC`
Completion: 0.458

Prompt: Data request, read-out PBM E-score of 8-mer, for `ACTTAAAG`
Completion: 0.0623

Prompt: Data request, read-out PBM E-score of 8-mer, for `TACTGACA`
Completion: 0.184

Prompt: Data request, read-out PBM E-score of 8-mer, for `CAGTACCA`
Completion: -0.0345

Prompt: Data request, read-out PBM E-score of 8-mer, for `TGTGTGAA`
Completion: 0.473

Prompt: Data request, read-out PBM E-score of 8-mer, for `AGTGTGTA`
Completion: 0.172
